- ASSAY_PROTOCOL: amyloid nucleation score (Sup35N fusion, yeast selection) (log enrichment); library NNK1; higher = more nucleation; inactive = no reads after selection;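 further: zero at mode of non-aggregating sequences after 7 days selection at 30°C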
MEASUREMENT_TYPE: amyloid nucleation score
Hey, just send me the number, nothing else.

Below are worked cases with known answers.
> print(dat)
              substance          measurement.type   value
1   RYSWSYEKKWIDNLQLVLR  amyloid nucleation score  -0.609
2  VSQVVCGMSYFGDCAIRQES  amyloid nucleation score   0.153

Kindly review the next substance as well.
Need amyloid nucleation score, item `YLYVGS` -0.352

---

- ASSAY_PROTOCOL: amyloid nucleation score (Sup35N fusion, yeast selection) (log enrichment); library NNK2; higher = more nucleation; inactive = no reads after selection
MEASUREMENT_TYPE: amyloid nucleation score

> print(dat)
       polymer.sequence     value
1  SVFYIYWRSWLFFRSLGLFI  inactive
2  LYKRMYECRRYFLMWNYRGF  inactive
3      VYMGEELVLVISVKDR  inactive

---

# amyloid nucleation score listing for each entry below
- ASSAY_PROTOCOL: amyloid nucleation score (Sup35N fusion, yeast selection) (log enrichment); library NNK2; higher = more nucleation; inactive = no reads after selection

> print(dat)
              substance  value
1              SHLTNDVY  0.614
2  DRVLTPNKGGKPRTLPHRDS   1.19
3            WYWHPCTIFL   5.46

Data request, read-out amyloid nucleation score, for `DELDVFG` -0.893

Another substance to check: `LWLIKARYFLELRRLESIRQ` 0.208

Note, next up: `YIKWQI` 2.94

Please give the result for `RADGSFMKLLA` too. -0.628

Now the substance `HYRIWVMHMWDCYWTTNFHG` -0.393

---

- ASSAY_PROTOCOL: amyloid nucleation score (Sup35N fusion, yeast selection) (log enrichment); library NNK3; higher = more nucleation; inactive = no reads after selection
MEASUREMENT_TYPE: amyloid nucleation score

> print(dat)
       polymer.sequence     value
1  EVFARIVPRDMMLFLILIIP  inactive
2            FILLGRNGLG  inactive
3           KYHMFRWGLSC  inactive

---

- ASSAY_PROTOCOL: amyloid nucleation score (Sup35N fusion, yeast selection) (log enrichment); library NNK1; higher = more nucleation; inactive = no reads after selection
Assign class by amyloid nucleation score: not lower than 0.03 means 1 (yes); lower than 0.03 means 0 (no).

Here's what some known entries look like.
> print(dat)
              substance  category
1  SFEDGGLMFMAPDIRGTGTR   1 (yes)
2     HGYHVHDGALLNQHNIS    0 (no)
3           LNDNLGSMFSL    0 (no)

Tell me whether amyloid nucleation score is at least 0.03 here: `CSAKNLYVTTQFSLVLFVGS` 1 (yes)

Entry to check: `GVLYSDTLT` 1 (yes)

Entry to check: `HALRSTLYMGSSVFLNAMDS` 1 (yes)

Next substance up: `IIINGVL` 0 (no)

Same thing, different substance: `TCHLIL` 0 (no)

Can you check `VLMMLNGTDVKWMESANELS` next? 1 (yes)

Continue with `LHAGHSSLNALAYSFRLHDR` 1 (yes)

Another substance: `TAVIKLSCLSLFMNSIMLVY` 1 (yes)

# repeat for `VDLPFMLAKVR` 1 (yes)

Follow-up entry: `CWPSRQF` 1 (yes)

Request: `RIYLRFYLIIR` 1 (yes)

Follow-up item: `FMPRSLHLTTWLQSNAFNNA` 1 (yes)

Another substance to look at: `SMSPWDFNICCMNVCTTLLT` 1 (yes)

Now give it for `TKVFGRYLVVSGRFCIIEKK` too. 0 (no)

Can you handle `GISSCWLRRFHVAKRARPSG` next? 0 (no)

Would you kindly repeat that for `SACNYVRRNVAHVRLLSL` ? 1 (yes)

Would you kindly repeat that for `PITILVVFNLQKY` ? 1 (yes)

Next entry: `SFVNTNHRMRRCYTTENNPS` 0 (no)

Try `SRFPYKKSVRTDSGRMSM` next. 0 (no)

What about this substance? `RREFYFLLVIALKSV` 1 (yes)
